experimentalDetails: chemical genetic growth profiling, strain panel (AID 1159580);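 further: tested at 20 µM; growth read once vehicle control cultures reached saturation at 30 °C; 1 = growth at the plate median or of vehicle wells; lower values mean less growth of the strain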
conditionsUsed: S. cerevisiae deletion strains, growth OD, locus YOR265W, strain rbl2
Structures can show the parent of a compound that is named as a salt. Out of some 5,500 compounds screened, about 2,000 (36%) were called active. About 18% were inconclusive and are not listed. No stated cut-off is given here; in the data, active means normalized growth mostly below about 0.91 (no sharp cut-off); inconclusive means no clear call, values can overlap the other calls; inactive means mostly above about 0.92. The list shows a part of the results. Where a SMILES comes first, the peptide text is derived from it. The star is where a group is joined. Tfa = O=C(C(F)(F)F)*
Classes used: true (1) = active, false (0) = inactive

1. COC(=O)[C@@H]1OC(=O)[C@H]2O[C@@]23[C@@]1(C)CCC1[C@@]2(C)CCC(=O)C(C)(C)C2C[C@@H](OC(C)=O)[C@]13C (stereo partly drawn) :: false (0)
2. CC(=O)OC1CCC2(C)C(=CC=C3C2CCC2(C)C3CCC2C(C)/C=C/C(C)C(C)C)C1(C)C (stereo not drawn) :: false (0)
3. CC[C@H](C)C(=O)O[C@H]1CCC=C2C=C[C@H](C)C(CCC3C[C@@H](O)CC(=O)O3)[C@H]21 (stereo partly drawn) :: false (0)
4. O=C1OC(c2ccc(O)cc2)(c2ccc(O)cc2)c2ccccc21 :: false (0)
5. CC(C)C(C)/C=C/C(C)[C@H]1CCC2C3=CCC4CC(=O)CC[C@]4(C)C3CC[C@@]21C (stereo partly drawn) :: false (0)
6. CO/N=C(\C(=O)N[C@@H]1C(=O)N2C(C(=O)O)=C(COC(C)=O)CS[C@H]12)c1csc(N)n1 :: false (0)
7. CCCCNc1ccc(C(=O)OCCN(C)C)cc1 :: false (0)
8. CCOC(=O)Nc1nc2ccccc2[nH]1 :: false (0)
9. C=C1C(=O)O[C@@H]2C3O[C@]3(C)CC/C=C(\C)CC[C@@H]12 (stereo partly drawn) :: false (0)
10. COC(=O)C(O)c1ccccc1 (stereo not drawn) :: false (0)
11. Cc1ccc(C)c(OCCCC(C)(C)C(=O)O)c1 :: false (0)
12. CCCCOC(=O)c1ccccc1C(=O)OCCCC :: false (0)
13. CCN(CC)CCOC(=O)c1ccc(N)cc1 :: false (0)
14. CC1=CC2C(CC1=O)C(C)=CCC2C(C)C (stereo not drawn) :: false (0)
15. C[C@H]1COC2=C1C(=O)C(=O)c1c2ccc2c1CCCC2(C)C :: true (1)
16. CC(C)C(NC(=O)C(Cc1ccc(O)cc1)NC(=O)C(NC(=O)C(F)(F)F)C(C)C)C(=O)O (stereo not drawn) (Tfa-Val-Tyr-Val-OH; configuration not given here) :: false (0)
17. COc1ccc2c(c1)O[C@H]1c3ccc(OC)cc3OC[C@@H]21 :: false (0)
18. CCCC(=O)O[C@]1(C(=O)CO)CCC2[C@@H]3CCC4=CC(=O)CC[C@]4(C)C3[C@@H](O)C[C@@]21C (stereo partly drawn) :: false (0)
19. CCCOc1ccc(C(=O)OCCN(CC)CC)cc1N :: false (0)
20. C[C@@H]1C(=O)OC2[C@H](O)C34[C@@H]5OC(=O)[C@@]3(O[C@@H]3OC(=O)[C@H](O)[C@@]34[C@H](C(C)(C)C)[C@H]5O)[C@]21O (stereo partly drawn) :: false (0)
21. O=C1C=C2C=C[C@@H]3C[C@@]2(O1)[C@H]1CCCCN31 :: false (0)
22. COc1ccc2c(c1OC)C(=O)OC2[C@H]1c2c(cc3c(c2OC)OCO3)CCN1C (stereo partly drawn) :: false (0)
23. CC(C(=O)O)c1ccc(C(=O)c2cccs2)cc1 (stereo not drawn) :: false (0)
24. Clc1cccc(Cl)c1NC1=NCCN1 :: false (0)
25. CCCCOC(=O)c1ccc(N)cc1 :: true (1)
26. Cc1c(Cl)cccc1Nc1ccccc1C(=O)O :: true (1)
27. C[C@H]1CC[C@@H](C(C)(C)O)CC2=C1CC[C@@H]2C :: false (0)
28. CCOC(=O)[C@H](CCc1ccccc1)N[C@@H](C)C(=O)N1[C@H](C(=O)O)C[C@@H]2CCC[C@@H]21 :: false (0)
29. C=CC(N)CCC(=O)O (stereo not drawn) :: false (0)
30. CCN(CC)C(=O)c1cccc(C)c1 :: false (0)
31. COc1cc2c(cc1OC)C1Cc3ccc(OC)c(OC)c3CN1CC2 (stereo not drawn) :: false (0)
32. CC1C[C@H]2CC(=O)[C@H]3CCCN4CCC[C@H]2[C@]34C1 (stereo partly drawn) :: false (0)
33. CO/N=C(\C(=O)N[C@@H]1C(=O)N2C(C(=O)O)=C(CSc3nc(=O)c(O)nn3C)CS[C@H]12)c1csc(N)n1 :: false (0)
34. O=C1OC2(c3ccc(O)cc3Oc3cc(O)ccc32)c2ccccc21 :: false (0)
35. CCCCN1CCCCC1C(=O)Nc1c(C)cccc1C (stereo not drawn) :: false (0)
36. NC(=O)c1cccc(N)c1 :: false (0)
37. O=C(O)c1ccccc1-c1c2cc(Br)c(=O)cc-2oc2[c]([Hg])c(O)c(Br)cc12 :: false (0)
38. CO/N=C(\C(=O)NC1C(=O)N2C(C(=O)OC(C)OC(C)=O)=C(COC(N)=O)CSC12)c1ccco1 (stereo not drawn) :: false (0)
39. CC1(C)O[C@H]2[C@H](O)C[C@](O)(C(N)=O)C[C@H]2O1 :: false (0)
40. Cc1ccc(Cl)c(Nc2ccccc2C(=O)O)c1Cl :: true (1)
41. C=C1C(=O)OC2CC1C(OC(C)=O)C/C(C)=C/CC/C(C)=C/CC[C@]2(C)O (stereo partly drawn) :: false (0)
42. CCCCC(=O)Oc1ccccc1C(=O)O :: false (0)
43. CC(C)C(C)/C=C/C(C)C1CCC2C3=CC=C4CC(O)CCC4(C)C3CCC21C (stereo not drawn) :: false (0)
